# Test system: OVCAR-4
# protocol: NCI tumour cell line growth inhibition, 48 h
Active and inactive are the calls of the source. No stated cut-off is given here; in the data, active = GI50 up to about 1.1 µM and inactive = higher.
Returns: one label drawn from 1.0 for active, 0.0 for inactive

COc1ccc(Cc2nc3cc([N+](=O)[O-])ccc3n2C[C@@H]2CCCN3CCCCC23)cc1 (some centres not stated)    0.0
O=C1C(=C(C(F)(F)Cl)C(F)(F)Cl)C2CCC1C2 (configuration not stated)    0.0
CCC1(O)CC(OC2CC(N(C)C)C(OC3CC(O)C(OC4CCC(=O)C(C)O4)C(C)O3)C(C)O2)c2c(cc3c(c2O)C(=O)c2c(O)ccc(O)c2C3=O)C1C(=O)OC (configuration not stated)    1.0

Field: outcome | Entry: `CO/N=C1/c2sccc2[C@H](NC(=O)C(F)(F)F)[C@@H]1O`
0.0

Called result for `CC(C)(C)c1cc2c3c(c1)C(C(F)(F)F)(C(F)(F)F)O[Te]3(C)OC2(C(F)(F)F)C(F)(F)F`
0.0

Call for entry CC(=O)Oc1ccc2c(c1)CC[C@@H]1C2CC[C@]2(C)C(=O)NC(=O)CC12 (some centres not stated) :
0.0

Recorded call for `Nc1cc[nH]c(=O)n1` ?
0.0

* * *

# Test system: SNB-19
# protocol: NCI tumour cell line growth inhibition, 48 h
Activity calls are given as the source filed them. Rule as the data show it: active = GI50 up to about 1.1 µM and inactive = higher.
// allowed return values: y (active), n (inactive)

COC(=NCCC1=CCCCC1)OC    n
C=CC1(c2ccc(Br)cc2)OCCCO1    n
Cc1cc(-n2nnc(C(=O)O)c2-c2ccccc2)c2ccc(Cl)cc2n1    n
CC(=O)OC1C/C(C)=C/[C@H](O)CC(C)/C=C/[C@@]2(C)CCC(C(C)(C)O)C12 (stereo not given in full)    n
CC(C)(C)OC(=O)NCC(C#N)CNC(=O)OC(C)(C)C    n

Which outcome was entered for the compound `O=C1NC(=O)c2ccccc2/C1=C/c1ccc2c(c1)OCO2` in this test?
n

* * *

# System: CAKI-1
# protocol: NCI tumour cell line growth inhibition, 48 h
The source made the active and inactive calls. Rule as the data show it: active = GI50 up to about 1.1 µM and inactive = higher.
// one of Yes (active), No (inactive), no free text

CC1OC(n2ncc(=O)[nH]c2=O)C=CC1=O (stereo unspecified)    No
O=C1CNC(=O)N1 [HYDANTOIN]    No
[O-][n+]1cn[n+]([O-])c2ccccc21    No
Nc1ccn(C2CCC(CO)O2)c(=O)n1 (stereo unspecified)    No

Any idea what this test logged for `CCc1n[nH]c(=O)n1CCO` ?
No

What did the test return for C=CCSc1nc2c(N)ncnc2n1C1OC(CO)C(O)C1O (stereo unspecified) ?
No

Identify the outcome logged in this assay for the molecule shown: `CN(C)CCn1c(=O)c2ccc(NCCCN(C)CCCNc3ccc4c(=O)n(CCN(C)C)c(=O)n5c6ccc([N+](=O)[O-])cc6c(=O)c3c45)c3c(=O)c4cc([N+](=O)[O-])ccc4n(c1=O)c23`
Yes

For `Cc1ccc(NCCCN2CCN(CCCNc3ccc(C)c4sc5ccccc5c(=O)c34)CC2)c2c(=O)c3ccccc3sc12` , what call appears in the results of this test?
No

How did this test come out for `COc1ccc(OCC(=N/NC(=O)c2ccncc2)/N=C/c2ccncc2)cc1` ?
No

Record lookup: outcome of this test for `CC(=O)c1ccc2c3c1[C@@H]1O[C@@H]1c1cccc(c1-3)[C@@H]1O[C@H]21` ?
No

Could you kindly confirm the outcome this assay logged for COC(=O)Cc1c(-c2c(CC(=O)OC)c3ccccc3n2C2OC(COC(C)=O)C(OC(C)=O)C(OC(C)=O)C2OC(C)=O)[nH]c2ccccc12 (stereo unspecified) ?
No

* * *

# Test system: NCI-H226
# protocol: NCI tumour cell line growth inhibition, 48 h
Active and inactive are the calls of the source. No stated cut-off is given here; in the data, active = GI50 up to about 1.1 µM and inactive = higher.
Listed next: entries and their corresponding GI50.

Record excerpt, results attached:
CNC(c1ccncc1)C(NC)c1ccncc1 (configuration not stated)    > 100 µM (inactive)
CCNc1nnc(CSc2nc(-c3ccccc3)c(-c3ccccc3)[nH]2)s1    13.4 µM (inactive)
N#Cc1ccc(C2NN=CC23C(=O)c2ccccc2OC3c2ccccc2)cc1 (configuration not stated)    39.4 µM (inactive)

GI50 reading for O=c1onc2n1-c1ccc(Cl)cc1C(=S)N1CSCC21 (configuration not stated) : 28.1 µM (inactive)

Per the record, NC(=O)c1ncn(C2C=CC(CP(=O)(O)O)C2)c1N (configuration not stated) has GI50 of > 100 µM (inactive)

Short answer for `O=C1CN=C(c2ccccc2)c2ccncc2N1` : GI50 was > 100 µM (inactive)

# GI50 (molecule: O=C1C2CC=CCC2C(=O)N1n1c(Cc2ccc(Cl)cc2)n[nH]c1=O (configuration not stated) ) is > 100 µM (inactive)

* * *

# System: PC-3
# protocol: NCI tumour cell line growth inhibition, 48 h
Calls of active or inactive are those of the source. Rule as the data show it: active = GI50 up to about 1.1 µM and inactive = higher.
readout: GI50

// solved cases for GI50 follow
c1ccc(Cn2c(-c3ccc(-c4ccccc4)cc3)cc3ccccc32)cc1    > 100 µM (inactive)
OC(c1cc(-c2ccc(Cl)cc2)nc2ccccc12)C1CCCCN1 (centres undefined)    1.97 µM (inactive)
O=C1Nc2ccccc2S/C1=C\c1ccc(C(F)(F)F)cc1    > 100 µM (inactive)

response.value for `COc1cc(OC)cc(Oc2nc3ccccc3nc2C(F)(F)F)c1` (field: GI50) = 89.7 µM (inactive)

* * *

# Tested on: CAKI-1
# protocol: NCI tumour cell line growth inhibition, 48 h
The source made the active and inactive calls. Cut-off read from the data, not from the text of the source: active = GI50 up to about 1.1 µM and inactive = higher.
Output constraint: value belongs to T (active), F (inactive)

These solved cases illustrate the format of a correct answer.
O=C1C=CC(S(=O)(=O)C2=C/C(=C/Nc3ccc(Cl)cc3)C(=O)C=C2)=C/C1=C/Nc1ccc(Cl)cc1    F
N#COc1ccc(Oc2ccc(OC#N)cc2)cc1    F

Please let me know the test result on file for COC(=O)C1CC(C=[N+](C)C)=C(SC)N1 (stereo unspecified) .
F

Outcome logged for O=C1c2c(O)cc(O)cc2OC(c2ccc(O)cc2O)C1O (stereo unspecified) in this assay:
F

Name the outcome recorded for `C/C(=N/NC(=S)N1CCCCCC1)c1ccccc1O` in the assay.
F

Check the results log: what was the call for `Oc1ccc(/C=N/c2nccs2)c(O)c1` ?
F

What is the recorded call for this compound in the test? `CC(C)CC1C(=O)OC(C)(C)OC1=O`
F

Recorded test outcome, item COC(=O)/C=C(\C)CC(O)/C=C(\C)CCC=C(C)C (stereo unspecified)
F

So what was the verdict on CCCCCCCCCC1C(C)c2c([nH]c3ccccc23)C2C(=O)N(c3ccccc3)C(=O)C21 (stereo unspecified) in this test?
F

Fill in: this test's call for NC(=O)c1ncn(C2C=CC(CP(=O)(O)O)C2)c1N (stereo unspecified) is ___
F

Outcome? `Cc1ccc(-c2n[nH]c(=O)n2NC(=O)c2ccccc2C(=O)O)cc1`
F

Fill in: this test's call for `Cc1ncc(CO)c(/C=N/CCCCCC/N=C/c2c(CO)cnc(C)c2[O-])c1[O-].[Mg+2]` is ___
F

Per the assay record, what outcome was assigned to COC(C(=O)C(O)C(C)O)C1CC2C=C3C=C(OC4CC(OC5CC(O)C(OC)C(C)O5)C(OC(C)=O)C(C)O4)C(C)C(O)=C3C(O)=C2C(=O)C1OC1CC(OC2CC(OC3CC(C)(O)C(OC(=O)C(C)C)C(C)O3)C(O)C(C)O2)C(O)C(C)O1 (stereo unspecified) ?
T

* * *

# System: A498
# protocol: NCI tumour cell line growth inhibition, 48 h
Active and inactive are the calls of the source. No stated cut-off is given here; in the data, active = GI50 up to about 1.1 µM and inactive = higher.
Returns: one label drawn from TRUE (active), FALSE (inactive)

The examples below pair each entry with its known result.
CCOC(=O)C1OC(C2(C)OC3(OC4(C=CC3O)OC(C(C)C(=O)C(C)C(O)C(C)CC(C)c3c(Cl)cc(C)c(O)c3C(=O)O)C(C)CC4C)C(C)C2OC)CC1O (configuration not stated)    TRUE
COc1ccc2c(c1)OCC1(O)Cc3ccccc3OC21 (configuration not stated)    FALSE
CC(=O)Oc1cc(Cl)c(OC(C)=O)c2c(OC(C)=O)c(C)c(O[Si](C)(C)C(C)(C)C)cc12    FALSE

Status in this test for `O=C(Cc1nc2ccc(C(=O)c3ccccc3)cc2nc1O)C(=O)Nc1ccc(C(F)(F)F)cc1[N+](=O)[O-]` ?
FALSE

So what was the verdict on `COc1cc(C)c(/C=C/C(=O)N2C(=O)OC[C@@H]2c2ccccc2)c(C)c1` in this test?
FALSE

What did the test return for `Cn1ccc(=NS(=O)(=O)c2ccccc2)cc1` ?
FALSE

* * *

# System: SF-295
# protocol: NCI tumour cell line growth inhibition, 48 h
Activity calls are given as the source filed them. No stated cut-off is given here; in the data, active = GI50 up to about 1.1 µM and inactive = higher.
Form field: GI50 (one value per entry).

Solved cases below.
CCOC(=O)NC(=O)c1cn(CCN(CCO)C(=O)NCCCCCCNC(=O)N(CCO)CCn2cc(C(=O)NC(=O)OCC)c(=O)[nH]c2=O)c(=O)[nH]c1=O    > 100 µM (inactive)
O=C1C=CC(=O)c2c1ccc1c3ccccc3n(CCCCCn3c4ccccc4c4ccc5c(c43)C(=O)C=CC5=O)c21    > 100 µM (inactive)
CC(C(=O)c1ccc(O)cc1)C1(O)C(=O)Nc2c(Cl)cc(Cl)cc21 (centres undefined)    45.4 µM (inactive)
[O-][n+]1cn[n+]([O-])c2ccccc21    30.3 µM (inactive)
CN1N=C(c2ccncc2)OC1c1cccc(C(F)(F)F)c1 (centres undefined)    > 100 µM (inactive)

Tested system SF-295; GI50 recorded for CC(=O)NCC1OC2COC(c3ccccc3)OC2C(NC(=O)c2ccccc2)C1OC(=O)c1ccccc1 (centres undefined) was > 100 µM (inactive)

The reported SF-295 GI50 of `CN1CCN(C(=O)c2cn(Cc3cncn3Cc3ccc4c(c3)OCO4)cc2-c2cccc3ccccc23)CC1` is 6.24 µM (inactive)

Log: SF-295, molecule `O=C(N/N=C\c1cccc2ccccc12)Nc1ccccc1` , GI50 = > 100 µM (inactive)

CCC(=O)Nc1ccc(N2C(=O)C(Cl)C2c2ccc(SC)cc2)cc1 (centres undefined) on SF-295 gives GI50 = > 100 µM (inactive)
